Hey, just so you know, these numbers are from ChEMBL document CHEMBL3421593.

# PROCEDURE SUMMARY: Antiproliferative activity against human SKBR3 cells
# Assay type: functional, cell-based
# PROTOCOL CONDITIONS: SK-BR-3
RECORDED METRIC: log10 of IC50 (log10 of the value in µM)

INSERT INTO results (molecule, experimental_value) VALUES
  ('COc1cccc(-c2cc(C(=O)Nc3cc4ccc5c(c4oc3=O)NC(=O)C(CCCN3CCCC3)O5)ccc2OC)c1 (configuration not stated)', 0.01),
  ('COc1cccc(-c2cc(C(=O)Nc3cc4ccc5c(c4oc3=O)NC(=O)C(CCNC34C[C@H]6C[C@@H](C3)C[C@@H](C4)C6)O5)ccc2OC)c1 (some centres not stated)', -0.06),
  ('COc1cccc(-c2cc(C(=O)Nc3cc4ccc5c(c4oc3=O)NC(=O)C(CN3CCCC3)O5)ccc2OC)c1 (configuration not stated)', 1.18),
  ('COc1cccc(-c2cc(C(=O)Nc3cc4ccc5c(c4oc3=O)NC(=O)C(CCN3CCNCC3)O5)ccc2OC)c1 (configuration not stated)', 0.74),
  ('COc1cccc(-c2cc(C(=O)Nc3cc4ccc5c(c4oc3=O)NC(=O)C(CCN(C)C)O5)ccc2OC)c1 (configuration not stated)', 0.91),
  ('COc1cccc(-c2cc(C(=O)Nc3cc4ccc5c(c4oc3=O)NC(=O)C(CCN3CCN(C)CC3)O5)ccc2OC)c1 (configuration not stated)', 0.61),
  ('COc1cccc(-c2cc(C(=O)Nc3cc4ccc5c(c4oc3=O)NC(=O)C(CCCN[C@]34CC6CC(C[C@@H](C6)C3)C4)O5)ccc2OC)c1 (some centres not stated)', -0.21),
  ('COc1cccc(-c2cc(C(=O)Nc3cc4ccc5c(c4oc3=O)NC(=O)C(CCNC3CC4CCC3C4)O5)ccc2OC)c1 (configuration not stated)', -0.17),
  ('COc1cccc(-c2cc(C(=O)Nc3cc4ccc5c(c4oc3=O)NC(=O)C(c3ccccc3)O5)ccc2OC)c1 (configuration not stated)', 1.68),
  ('COc1cccc(-c2cc(C(=O)Nc3cc4ccc5c(c4oc3=O)NC(=O)C(CCN3CCCCC3)O5)ccc2OC)c1 (configuration not stated)', 0.01),
  ('COc1cccc(-c2cc(C(=O)Nc3cc4ccc5c(c4oc3=O)NC(=O)C(Cc3ccccc3)O5)ccc2OC)c1 (configuration not stated)', 1.33),
  ('COc1cccc(-c2cc(C(=O)Nc3cc4ccc5c(c4oc3=O)NC(=O)C(CCCN3CCN(C)CC3)O5)ccc2OC)c1 (configuration not stated)', 0.25),
  ('COc1cccc(-c2cc(C(=O)Nc3cc4ccc5c(c4oc3=O)NC(=O)C(CCNC3CCCCC3)O5)ccc2OC)c1 (configuration not stated)', -0.11),
  ('COc1cccc(-c2cc(C(=O)Nc3cc4ccc5c(c4oc3=O)NC(=O)C(CCCNC3CC4CCC3C4)O5)ccc2OC)c1 (configuration not stated)', 0.10),
  ('COc1ccc(CC2Oc3ccc4cc(NC(=O)c5ccc(OC)c(-c6cccc(OC)c6)c5)c(=O)oc4c3NC2=O)cc1 (configuration not stated)', 0.92),
  ('COc1cccc(-c2cc(C(=O)Nc3cc4cc(OC)c(OC(C)=O)c(C)c4oc3=O)ccc2OC)c1', 0.78),
  ('COc1cccc(-c2cc(C(=O)Nc3cc4ccc5c(c4oc3=O)NC(=O)C(CCCN3CCCCC3)O5)ccc2OC)c1 (configuration not stated)', -0.11);

###

# PROCEDURE SUMMARY: Antiproliferative activity against human SKBR3 cells
# Type: functional, cell-based
# PROTOCOL CONDITIONS: SK-BR-3
pIC50: −log10 of the molar value.
RECORDED METRIC: pIC50

INSERT INTO assay_data (molecule, experimental_value) VALUES
  ('COc1cccc(-c2cc(C(=O)Nc3cc4ccc5c(c4oc3=O)NC(=O)C(CCCN3CCNCC3)O5)ccc2OC)c1 (stereo not drawn)', 5.04),
  ('COc1cccc(-c2cc(C(=O)Nc3cc4ccc5c(c4oc3=O)NC(=O)C(CCN3CCCC3)O5)ccc2OC)c1 (stereo not drawn)', 5.46),
  ('COc1cccc(-c2cc(C(=O)Nc3cc4ccc5c(c4oc3=O)NC(=O)C(CCCNC3CCCCC3)O5)ccc2OC)c1 (stereo not drawn)', 6.70),
  ('COc1cccc(-c2cc(C(=O)Nc3cc4ccc5c(c4oc3=O)NC(=O)C(CN3CCNCC3)O5)ccc2OC)c1 (stereo not drawn)', 5.24),
  ('COc1cccc(-c2cc(C(=O)Nc3cc4ccc(O[C@H]5OC(C)(C)[C@@H](OC)[C@H](O)[C@@H]5O)c(OC)c4oc3=O)ccc2OC)c1', 4.86),
  ('COc1cccc(-c2cc(C(=O)Nc3cc4ccc5c(c4oc3=O)NC(=O)C(CCCCN3CCCC3)O5)ccc2OC)c1 (stereo not drawn)', 5.60),
  ('COc1cccc(-c2cc(C(=O)Nc3cc4ccc(OCCN(C)C)c(OC)c4oc3=O)ccc2OC)c1', 5.70),
  ('COc1cccc(-c2cc(C(=O)Nc3cc4ccc5c(c4oc3=O)NC(=O)C(CCN3CCOCC3)O5)ccc2OC)c1 (stereo not drawn)', 5.18);

###

Each record here notes measured IC50.
# Test system: MCF7
# PROCEDURE SUMMARY: Antiproliferative activity against human MCF7 cells
# Type: functional, cell-based
RECORDED METRIC: IC50 (µM)

INSERT INTO measurements (compound, tgt, recorded_metric, unit_abbrev, relation_symbol, experimental_value) VALUES
  ('COc1cccc(-c2cc(C(=O)Nc3cc4ccc5c(c4oc3=O)NC(=O)C(CCCNC3CC4CCC3C4)O5)ccc2OC)c1 (stereo not drawn)', 'MCF7', 'IC50', 'µM', '=', 1.34),
  ('COc1cccc(-c2cc(C(=O)Nc3cc4ccc5c(c4oc3=O)NC(=O)C(C(N)=O)O5)ccc2OC)c1 (stereo not drawn)', 'MCF7', 'IC50', 'µM', '=', 33.4),
  ('COc1cccc(-c2cc(C(=O)Nc3cc4ccc5c(c4oc3=O)NC(=O)C(Cc3ccc(Cl)cc3)O5)ccc2OC)c1 (stereo not drawn)', 'MCF7', 'IC50', 'µM', '>', 50),
  ('COc1cccc(-c2cc(C(=O)Nc3cc4ccc5c(c4oc3=O)NC(=O)C(CN3CCNCC3)O5)ccc2OC)c1 (stereo not drawn)', 'MCF7', 'IC50', 'µM', '=', 5.27),
  ('COc1cccc(-c2cc(C(=O)Nc3cc4ccc5c(c4oc3=O)NC(=O)C(CN3CCCC3)O5)ccc2OC)c1 (stereo not drawn)', 'MCF7', 'IC50', 'µM', '=', 22.9),
  ('COc1cccc(-c2cc(C(=O)Nc3cc4ccc5c(c4oc3=O)NC(=O)C(CCN3CCCC3)O5)ccc2OC)c1 (stereo not drawn)', 'MCF7', 'IC50', 'µM', '=', 5.2),
  ('COc1cccc(-c2cc(C(=O)Nc3cc4ccc5c(c4oc3=O)NC(=O)C(Cc3ccccc3)O5)ccc2OC)c1 (stereo not drawn)', 'MCF7', 'IC50', 'µM', '=', 22.1),
  ('COc1cccc(-c2cc(C(=O)Nc3cc4ccc5c(c4oc3=O)NC(=O)C(CCCCN3CCCC3)O5)ccc2OC)c1 (stereo not drawn)', 'MCF7', 'IC50', 'µM', '=', 1.53),
  ('COc1cccc(-c2cc(C(=O)Nc3cc4ccc5c(c4oc3=O)NC(=O)C(CCCN3CCCC3)O5)ccc2OC)c1 (stereo not drawn)', 'MCF7', 'IC50', 'µM', '=', 1.49),
  ('COc1cccc(-c2cc(C(=O)Nc3cc4ccc5c(c4oc3=O)NC(=O)C(CCNC3CC4CCC3C4)O5)ccc2OC)c1 (stereo not drawn)', 'MCF7', 'IC50', 'µM', '=', 1.22),
  ('COc1cccc(-c2cc(C(=O)Nc3cc4ccc5c(c4oc3=O)NC(=O)C(CCCN3CCCCC3)O5)ccc2OC)c1 (stereo not drawn)', 'MCF7', 'IC50', 'µM', '=', 0.85),
  ('COc1cccc(-c2cc(C(=O)Nc3cc4ccc5c(c4oc3=O)NC(=O)C(CN3CCN(C(=O)OC(C)(C)C)CC3)O5)ccc2OC)c1 (stereo not drawn)', 'MCF7', 'IC50', 'µM', '>', 50),
  ('COc1cccc(-c2cc(C(=O)Nc3cc4ccc5c(c4oc3=O)NC(=O)C(CCN3CCNCC3)O5)ccc2OC)c1 (stereo not drawn)', 'MCF7', 'IC50', 'µM', '=', 7.63);

###

# Test system: MCF7
# PROCEDURE SUMMARY: Antiproliferative activity against human MCF7 cells
# Type: functional, cell-based
Measured log10(IC50) values are reported for all entries that follow.
RECORDED METRIC: log10(IC50) (log10 of the value in µM)

INSERT INTO measurements (compound, experimental_value) VALUES
  ('COc1cccc(-c2cc(C(=O)Nc3cc4ccc5c(c4oc3=O)NC(=O)C(CCCN[C@]34CC6CC(C[C@@H](C6)C3)C4)O5)ccc2OC)c1 (stereo partly drawn)', -0.14),
  ('COc1cccc(-c2cc(C(=O)Nc3cc4ccc5c(c4oc3=O)NC(=O)C(CCN(C)C)O5)ccc2OC)c1 (stereo not drawn)', 1.06),
  ('COc1cccc(-c2cc(C(=O)Nc3cc4ccc(O[C@H]5OC(C)(C)[C@@H](OC)[C@H](O)[C@@H]5O)c(OC)c4oc3=O)ccc2OC)c1', 0.95),
  ('COc1cccc(-c2cc(C(=O)Nc3cc4ccc5c(c4oc3=O)NC(=O)C(CCN3CCN(C)CC3)O5)ccc2OC)c1 (stereo not drawn)', 0.75),
  ('COc1cccc(-c2cc(C(=O)Nc3cc4ccc5c(c4oc3=O)NC(=O)C(CCCN3CCNCC3)O5)ccc2OC)c1 (stereo not drawn)', 1.11),
  ('COc1cccc(-c2cc(C(=O)Nc3cc4ccc5c(c4oc3=O)NC(=O)C(CCN3CCCCC3)O5)ccc2OC)c1 (stereo not drawn)', 0.02);
